# Tested on: 485176-168-R4-J1-PDC complex spheroid growth;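 note: spheroids exposed to compounds for seven days before readout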
# procedure_text: Anticancer human tumor 485176-168-R4-J1-PDC patient-derived pancreatic adenocarcinoma cell line growth inhibition [RAS]
# study_conditions: second compound 0.003 µM; first compound 1 µM; stronger effect = lower value
Quick rule for you: viability, T/C under 70% gets MET, anything else gets NOT MET.

The following compounds have reported results that may help.
compound	label
NC1c2ccccc2OC12CCN(c1cnc3c(N4CCCc5ncccc54)n[nH]c3n1)CC2 (stereo not drawn) + CCn1c(-c2cccnc2C(C)OC)c2c3cc(ccc31)N1CCOC(CC(NC(=O)C(C(C)C)N(C)C(=O)C3(F)CCN(C(=O)C#CC(C)(C)N(C)C)CC3)C(=O)N3CCCC(N3)C(=O)OCC(C)(C)C2)C1	NOT MET
O=C(c1ccc(F)c(F)c1Nc1ccc(I)cc1F)N1CC(O)([C@@H]2CCCCN2)C1 + CCn1c(-c2cccnc2C(C)OC)c2c3cc(ccc31)N1CCOC(CC(NC(=O)C(C(C)C)N(C)C(=O)C3(F)CCN(C(=O)C#CC(C)(C)N(C)C)CC3)C(=O)N3CCCC(N3)C(=O)OCC(C)(C)C2)C1	MET
CCN1CCN(Cc2ccc(Nc3ncc(F)c(-c4cc(F)c5nc(C)n(C(C)C)c5c4)n3)nc2)CC1 + CCn1c(-c2cc(N3CCN(C)CC3)cnc2C(C)OC)c2c3cc(ccc31)-c1csc(n1)CC(NC(=O)C1CC1C)C(=O)N1CCCC(N1)C(=O)OCC(C)(C)C2	MET

Asked: Find out if reported viability, T/C for CC(C)NCC(C(=O)N1CCN(c2ncnc3c2C(C)CC3O)CC1)c1ccc(Cl)cc1 (stereo not drawn) + CCn1c(-c2cc(N3CCN(C)CC3)cnc2C(C)OC)c2c3cc(ccc31)-c1csc(n1)CC(NC(=O)C1CC1C)C(=O)N1CCCC(N1)C(=O)OCC(C)(C)C2 is less than 70%
Given back: MET

Asked: Find out if reported viability, T/C for O=C(c1ccc(F)c(F)c1Nc1ccc(I)cc1F)N1CC(O)([C@@H]2CCCCN2)C1 + CCn1c(-c2cc(N3CCN(C)CC3)cnc2C(C)OC)c2c3cc(ccc31)-c1csc(n1)CC(NC(=O)C1CC1C)C(=O)N1CCCC(N1)C(=O)OCC(C)(C)C2 is less than 70%
Given back: MET

Asked: Find out if reported viability, T/C for C=CC(=O)N1CCN(c2nc(OCC3CCCN3C)nc3c(F)c(-c4nc(N)cc(C)c4C(F)(F)F)c(Cl)cc23)C(C)C1 (stereo not drawn) + CCn1c(-c2cc(N3CCN(C)CC3)cnc2C(C)OC)c2c3cc(ccc31)-c1csc(n1)CC(NC(=O)C1CC1C)C(=O)N1CCCC(N1)C(=O)OCC(C)(C)C2 is less than 70%
Given back: NOT MET

Asked: Find out if reported viability, T/C for NC1c2ccccc2OC12CCN(c1cnc3c(N4CCCc5ncccc54)n[nH]c3n1)CC2 (stereo not drawn) + CCn1c(-c2cc(N3CCN(C)CC3)cnc2C(C)OC)c2c3cc(ccc31)-c1csc(n1)CC(NC(=O)C1CC1C)C(=O)N1CCCC(N1)C(=O)OCC(C)(C)C2 is less than 70%
Given back: NOT MET
